Every entry's value here was drawn from ChEMBL document CHEMBL1154321.

- STUDY_SYSTEM: UniProtKB Q12809
- Sequence (Q12809 whole entry): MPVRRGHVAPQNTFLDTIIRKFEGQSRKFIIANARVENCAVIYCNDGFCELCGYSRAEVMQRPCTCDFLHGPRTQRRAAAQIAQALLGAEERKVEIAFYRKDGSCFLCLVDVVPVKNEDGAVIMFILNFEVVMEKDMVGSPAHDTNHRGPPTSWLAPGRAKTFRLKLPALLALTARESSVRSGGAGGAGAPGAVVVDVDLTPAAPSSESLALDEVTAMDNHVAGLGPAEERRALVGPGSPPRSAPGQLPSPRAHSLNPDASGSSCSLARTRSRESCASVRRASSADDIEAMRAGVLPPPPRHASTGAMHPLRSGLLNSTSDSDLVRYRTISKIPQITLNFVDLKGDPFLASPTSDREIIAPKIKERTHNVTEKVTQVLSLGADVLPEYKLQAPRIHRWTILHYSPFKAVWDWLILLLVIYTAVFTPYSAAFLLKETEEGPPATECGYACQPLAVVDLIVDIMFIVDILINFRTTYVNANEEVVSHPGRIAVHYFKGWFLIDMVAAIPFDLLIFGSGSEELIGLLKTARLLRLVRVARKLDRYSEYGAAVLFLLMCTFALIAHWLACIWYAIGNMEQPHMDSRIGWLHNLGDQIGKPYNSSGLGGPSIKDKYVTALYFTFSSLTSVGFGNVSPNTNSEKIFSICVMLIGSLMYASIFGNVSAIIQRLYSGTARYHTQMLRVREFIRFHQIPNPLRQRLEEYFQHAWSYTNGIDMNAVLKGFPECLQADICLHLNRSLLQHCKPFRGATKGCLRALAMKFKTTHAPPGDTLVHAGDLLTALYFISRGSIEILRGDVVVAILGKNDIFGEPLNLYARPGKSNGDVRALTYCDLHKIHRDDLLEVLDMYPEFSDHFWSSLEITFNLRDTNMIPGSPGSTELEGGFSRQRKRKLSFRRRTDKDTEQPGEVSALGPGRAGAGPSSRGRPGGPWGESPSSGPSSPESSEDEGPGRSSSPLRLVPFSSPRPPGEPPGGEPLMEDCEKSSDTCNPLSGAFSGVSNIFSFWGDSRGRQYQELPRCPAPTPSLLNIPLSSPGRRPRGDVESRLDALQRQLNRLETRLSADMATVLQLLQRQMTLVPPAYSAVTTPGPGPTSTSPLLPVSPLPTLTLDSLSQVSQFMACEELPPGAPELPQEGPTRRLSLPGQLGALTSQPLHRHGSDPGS
- EXPERIMENT_DESCRIPTION: Inhibition of human ERG expressed in CHO cells by patch clamp technique
// reported IC50 for each item listed
OUTCOME_MEASURE: IC50

MOL_SMILES	REPORTED_VALUE
CCOc1cc(CN2CCC(Nc3nc4cc(C(=O)O)ccc4o3)CC2)cc(OCC)c1Cl	> 10 µM
CCOc1cc(CN2CCC(Nc3nc4cc(C(N)=O)ccc4o3)CC2)cc(OCC)c1F	0.43 µM
CCOc1cc(CN2CCC(Nc3nc4ccc(C(=O)O)cc4o3)CC2)ccc1Cl	> 10 µM

====

- EXPERIMENT_DESCRIPTION: Octanol-TAPSO partition coefficient, log D at pH 7.4 by spectrophotometry
- Assay type: physicochemical
- EXPERIMENTAL_CONTEXT: octanol/TAPSO buffer
// reported logD for each item listed
OUTCOME_MEASURE: logD

MOL_SMILES	REPORTED_VALUE
CCOc1cc(CN2CCC(Nc3nc4ccccc4o3)CC2)cc(OC2CCOCC2)c1	3.02
CCOc1cc(CN2CCC(Nc3nc4cc(NS(=O)(=O)c5cn(C)cn5)ccc4o3)CC2)ccc1OC	1.48
CCOc1cc(CN2CCC(Nc3nc4cc(C(=O)O)ccc4o3)CC2)cc(OCC)c1Cl	1.82
CCOc1cc(CN2CCC(Nc3nc4ccc(C(=O)O)cc4o3)CC2)cc(OCC)c1F	1.33
CCOc1cc(CN2CCC(Nc3nc4cc(Cl)c(S(N)(=O)=O)cc4o3)CC2)ccc1F	2.78
CCOc1cc(CN2CCC(Nc3nc4cc(S(=O)(=O)N(C)C)ccc4o3)CC2)cc(OCC)c1-n1cccc1	2.89
CCOc1cc(CN2CCC(Nc3nc4ccc(C(=O)O)cc4o3)CC2)ccc1Cl	1.39
CCOc1cc(CN2CCC(Nc3nc4cc(Cl)c(S(N)(=O)=O)cc4o3)CC2)ccc1OC	2.67

====

- STUDY_SYSTEM: Somatostatin receptor type 4 (Homo sapiens)
- Sequence (P31391 whole entry): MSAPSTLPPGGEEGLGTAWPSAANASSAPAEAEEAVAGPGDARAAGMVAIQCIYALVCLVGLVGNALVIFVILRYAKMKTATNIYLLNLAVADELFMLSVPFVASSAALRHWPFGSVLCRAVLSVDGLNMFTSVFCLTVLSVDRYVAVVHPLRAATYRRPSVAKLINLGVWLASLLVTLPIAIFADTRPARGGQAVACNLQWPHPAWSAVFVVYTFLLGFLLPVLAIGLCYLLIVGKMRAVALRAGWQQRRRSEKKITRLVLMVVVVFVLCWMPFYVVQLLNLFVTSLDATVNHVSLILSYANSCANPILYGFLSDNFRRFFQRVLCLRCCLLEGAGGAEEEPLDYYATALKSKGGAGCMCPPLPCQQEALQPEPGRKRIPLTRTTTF
- EXPERIMENT_DESCRIPTION: Displacement of SST14 from human recombinant SST4 receptor
pKi: −log10 of the molar value.
// reported pKi for each item listed

COMPOUND	pKi
CCOc1cc(CN2CCC(Nc3nc4cc(Cl)c(S(N)(=O)=O)cc4o3)CC2)cc(OCC)c1F	< 5.00
CCOc1cc(CN2CCC(Nc3nc4cc(NS(=O)(=O)c5ccccc5)ccc4o3)CC2)ccc1OC	< 5.00
CCOc1cc(CN2CCC(Nc3nc4cc(S(=O)(=O)CC)ccc4o3)CC2)cc(OC2CCOCC2)c1	< 5.00
CCOc1cc(CN2CCC(Nc3nc4ccccc4o3)CC2)cc(OCC)c1F	< 5.00
COc1ccc(CCN2CCC(Nc3nc4ccccc4n3Cc3ccc(F)cc3)CC2)cc1	< 5.00
CCOc1cc(NC2CCC(Nc3nc4ccccc4s3)CC2)ccc1OC (stereo not drawn)	< 5.00
CCOc1cc(CN2CCC(Nc3nc4ccccc4o3)CC2)cc(OC2CCOCC2)c1	< 5.00
CCOc1cc(CN2CCC(Nc3nc4cc(C(=O)O)ccc4o3)CC2)cc(OCC)c1Cl	< 5.00
CCOc1cc(CN2CCC(Nc3nc4cc(NC(=O)C5CCC5)ccc4o3)CC2)ccc1OC	< 5.00
CCOc1cc(CN2CCC(Nc3nc4cccnc4o3)CC2)ccc1OC	< 5.00
COc1ccc(CN2CCC(Nc3nc4ccccc4o3)CC2)cc1OC1CCCC1	< 5.00
CCOc1cc(CN2CCC(Nc3nc4ccccc4o3)CC2)ccc1OC1CC1	< 5.00
CCOc1cc(CN2CCC(Nc3nc4ccccc4s3)CC2)ccc1OC	< 5.00
